Each recorded value in this set is attributed to patent US20230233569A1.

study_system: KRAS G12C (Homo sapiens, UniProt P01116+P62937, G12C)
Sequence (P01116 1-169 isoform P01116-2 G12C): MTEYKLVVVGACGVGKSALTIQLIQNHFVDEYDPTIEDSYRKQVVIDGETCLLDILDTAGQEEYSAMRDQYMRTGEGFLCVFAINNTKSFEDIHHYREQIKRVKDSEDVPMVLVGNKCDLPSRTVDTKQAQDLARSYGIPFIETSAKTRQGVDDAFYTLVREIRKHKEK
Sequence (P62937 whole entry): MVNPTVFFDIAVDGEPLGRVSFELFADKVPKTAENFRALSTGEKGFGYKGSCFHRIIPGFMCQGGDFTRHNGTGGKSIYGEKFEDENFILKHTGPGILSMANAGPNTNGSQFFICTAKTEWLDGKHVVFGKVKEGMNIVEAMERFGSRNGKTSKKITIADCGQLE
method: Disruption of BRAF RBD interaction with Ras (FRET / MOA assay, with Cyclophilin A)
Assay type: biochemical
setup_conditions: KRAS G12C FRET data, IC50
pIC50: −log10 of the molar value.
readout_name: pIC50

Worked examples follow.
INSERT INTO results (chemical_smiles, result) VALUES
  ('CCn1c(-c2cnccc2COC)c2c3cc(ccc31)-c1cc(O)cc(c1)C[C@H](NC(=O)[C@H](C(C)C)N(C)C(=O)[C@H]1CCN(C(=O)OC)C1)C(=O)N1CCC[C@H](N1)C(=O)OCC(C)(C)C2', '7.00 to 8.00'),
  ('CCn1c(-c2cnccc2COC)c2c3cc(ccc31)-c1cc(O)cc(c1)C[C@H](NC(=O)[C@H](C(C)C)N(C)C(=O)[C@H]1CCN(C)C1)C(=O)N1CCC[C@H](N1)C(=O)OCC(C)(C)C2', '6.00 to 7.00');

From here, focus on the item given below.
stdin: Find the recorded pIC50 belonging to CCn1c(-c2cnccc2COC)c2c3cc(ccc31)-c1cc(O)cc(c1)C[C@H](NC(=O)[C@H](C(C)C)N(C)C(=O)[C@H](C)O)C(=O)N1CCC[C@H](N1)C(=O)OCC(C)(C)C2 and report it.
stdout: 6.00 to 7.00
